The following binders are shown together with reported IC50 values.
Target or test system: T1, HLA-DRB1*0101 (human)
T1 construct: also called DR1
Experimental protocol: competition with 125I probe peptide, purified HLA
Number in nM, nothing else.

[
  {
    "Binder": "TQLFEDNYALAVLDN [Her2/neu.105]",
    "Unit annotation": "nM",
    "IC50": 94
  },
  {
    "Binder": "GTDMKLRLPASPETH [Her2/neu.28]",
    "Unit annotation": "nM",
    "IC50": 5000
  },
  {
    "Binder": "LTSIISAVVGILLVV [Her2/neu.651]",
    "Unit annotation": "nM",
    "IC50": 26
  },
  {
    "Binder": "DMKLRLPASPETHLD [Her2/neu.30]",
    "Unit annotation": "nM",
    "IC50": 5000
  }
]

Lab note: KVPIKWMALESILRR [Her2/neu.883] gave IC50 of 2.3

Given item DEAYVMAGVGSPYVS [Her2/neu.769] , the value recorded as its IC50 is 100

Entry ETELVEPLTPSGAMP [Her2/neu.693] — recorded IC50 = 833

Reported IC50 of ITDFGLARLLDIDET [Her2/neu.861] : 1040
